Test system: Human primary T cells
Test: IL-2 ELISA, Human Primary T Cell, Anti-CD3+CD28+ (Example 3)
Assay type: cell-based
Conditions: Homo sapiens, T-cell, 24 h, anti-CD3+CD28 stimulation
Could you please report measured IC50 for the items listed next?
Give bare numbers, in µM.

// solved cases for IC50 follow
Query: Would you kindly share the measured IC50 for CCN(CC)C1CCC(Nc2nc(Nc3cccc(C#N)c3)ncc2F)CC1 (stereo not shown) ?
Reply: 4.51

Query: IC50 for CN1CCN(c2ccc(Nc3ncc(F)c(NC4CCN(CCO)CC4)n3)cc2C(F)(F)F)CC1 ?
Reply: 1.14

Query: Report IC50 for CN1C(C)(C)CC(Nc2nc(N[C@H]3CCc4ccccc43)ncc2F)CC1(C)C please.
Reply: 19.6

Query: Which measured IC50 value corresponds to CN1CCN(c2ccc(Nc3ncc(C#N)c(NC4CC(C)(C)N(C)C(C)(C)C4)n3)cc2C(F)(F)F)CC1 ?
Reply: 0.443

Query: Fill blank: measured IC50 of the compound COc1ccc(Nc2ncc(C(F)(F)F)c(NC3CC(C)(C)N(C)C(C)(C)C3)n2)cc1OC(F)F is ____.
Reply: 0.161

# batch: return IC50 for each of the 4 compounds below
1. CN1CCN(c2ccc(Nc3ncc(F)c(NC4CC(C)(C)N(C)C(C)(C)C4)n3)cc2C(F)(F)F)CC1
2. CN1C(C)(C)CC(Nc2nc(Nc3ccc(-c4ccoc4)c(C(F)(F)F)c3)ncc2F)CC1(C)C
3. CCCN1CCN(c2ccc(Nc3ncc(F)c(NC4CC(C)(C)N(C)C(C)(C)C4)n3)cc2Cl)CC1
4. Cc1cc(Nc2ncc(F)c(NC3CC(C)(C)N(C)C(C)(C)C3)n2)ccc1-c1cccnc1

Reply:
[0.086, 0.288, 0.136, 0.268]

----------
Target: PKC theta (Homo sapiens)
Sequence (Q04759 whole entry): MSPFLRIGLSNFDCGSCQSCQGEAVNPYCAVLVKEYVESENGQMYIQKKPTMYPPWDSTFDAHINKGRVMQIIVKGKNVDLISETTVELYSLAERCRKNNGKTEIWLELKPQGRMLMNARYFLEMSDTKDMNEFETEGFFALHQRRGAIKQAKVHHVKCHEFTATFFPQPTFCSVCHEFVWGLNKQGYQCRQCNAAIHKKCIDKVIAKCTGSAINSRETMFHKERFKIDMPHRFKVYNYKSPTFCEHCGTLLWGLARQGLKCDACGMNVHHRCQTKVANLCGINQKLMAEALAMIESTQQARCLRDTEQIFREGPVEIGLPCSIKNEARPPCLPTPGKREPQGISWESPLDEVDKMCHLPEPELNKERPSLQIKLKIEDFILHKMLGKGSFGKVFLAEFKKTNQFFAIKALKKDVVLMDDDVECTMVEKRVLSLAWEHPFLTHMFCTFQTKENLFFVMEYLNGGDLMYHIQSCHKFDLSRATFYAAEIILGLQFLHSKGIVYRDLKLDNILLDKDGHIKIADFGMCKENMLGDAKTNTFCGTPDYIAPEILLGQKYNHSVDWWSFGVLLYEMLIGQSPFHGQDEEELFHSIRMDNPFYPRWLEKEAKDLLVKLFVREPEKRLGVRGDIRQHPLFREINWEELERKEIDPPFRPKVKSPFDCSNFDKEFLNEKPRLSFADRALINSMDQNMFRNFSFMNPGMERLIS
Give IC50 for every item shown.
One number for each entry, in nM.

Query: I'd like to know its IC50. The molecule in question is CN1C(C)(C)CC(Nc2nc(Nc3cccc(Br)c3)ncc2F)CC1(C)C
Reply: 15.8

Query: Quick check: IC50 of Cc1ccc(Nc2ncc(F)c(NC3CC(C)(C)N(C)C(C)(C)C3)n2)cc1C#N ?
Reply: 2.92

Query: Which measured IC50 value corresponds to CN1C(C)(C)CC(Nc2nc(Nc3ccc(C#N)c(Cl)c3)ncc2Cl)CC1(C)C ?
Reply: 24

Query: Param item = CN1C(C)(C)CC(Nc2nc(Nc3ccc(-c4ccncc4)c(F)c3)ncc2F)CC1(C)C ; retrieve measured IC50.
Reply: 21.9

Query: Look at this molecule and give its reported IC50. Cc1ccc(Nc2ncc(F)c(NC3CC(C)(C)N(C)C(C)(C)C3)n2)cc1-c1cccnc1
Reply: 4.38

Please give IC50, item by item, for the list that follows.
1. CN1C(C)(C)CC(Nc2nc(Nc3cccc(-n4cnnn4)c3)ncc2F)CC1(C)C
2. Cc1cc(Nc2ncc(F)c(NC3CC(C)(C)N(C)C(C)(C)C3)n2)cnc1N1CCN(C)CC1
3. CN1C(C)(C)CC(Nc2nc(Nc3cccc(-c4cnco4)c3)ncc2F)CC1(C)C

Reply:
1. 5.11
2. 16
3. 34.4

----------
Biological target: PKC epsilon (Homo sapiens)
Sequence (Q02156 1-737): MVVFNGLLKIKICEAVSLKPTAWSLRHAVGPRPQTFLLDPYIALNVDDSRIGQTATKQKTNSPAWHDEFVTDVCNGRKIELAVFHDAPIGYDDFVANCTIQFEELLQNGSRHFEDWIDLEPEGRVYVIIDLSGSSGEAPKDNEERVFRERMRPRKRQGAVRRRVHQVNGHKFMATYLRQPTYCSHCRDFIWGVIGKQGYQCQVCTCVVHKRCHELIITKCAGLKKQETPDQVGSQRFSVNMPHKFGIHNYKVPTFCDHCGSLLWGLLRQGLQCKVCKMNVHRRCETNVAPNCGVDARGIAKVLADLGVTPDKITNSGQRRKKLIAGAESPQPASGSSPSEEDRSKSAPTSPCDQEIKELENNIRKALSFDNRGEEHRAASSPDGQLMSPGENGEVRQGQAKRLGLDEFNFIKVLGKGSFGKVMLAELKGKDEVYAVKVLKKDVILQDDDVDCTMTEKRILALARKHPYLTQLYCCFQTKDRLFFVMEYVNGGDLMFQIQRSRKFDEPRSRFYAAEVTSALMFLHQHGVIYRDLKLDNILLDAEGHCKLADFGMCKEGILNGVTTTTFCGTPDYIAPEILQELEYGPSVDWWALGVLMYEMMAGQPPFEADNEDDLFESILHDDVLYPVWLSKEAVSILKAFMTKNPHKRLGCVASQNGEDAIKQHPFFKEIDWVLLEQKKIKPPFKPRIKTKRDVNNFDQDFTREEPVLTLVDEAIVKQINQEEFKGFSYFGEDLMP
// NB: equality with 40 nM counts as not fulfilled; only IC50 strictly below is fulfilled

Query: Quick check: IC50 of COc1ccc(Nc2ncc(C#N)c(NC3CC(C)(C)N(C)C(C)(C)C3)n2)cc1-n1c(C)ccc1C under 40 nM?
Reply: not fulfilled

Query: Hello, is IC50 of the following compound strictly smaller than 40 nM? Cc1ccc(Nc2ncc(C#N)c(NC3CC(C)(C)NC(C)(C)C3)n2)cc1-n1cnnn1
Reply: not fulfilled

Query: Take the compound CN1C(C)(C)CC(Nc2nc(Nc3ccc(N4CCCC4)c(C#N)c3)ncc2F)CC1(C)C and say whether its IC50 is less than 40 nM.
Reply: not fulfilled

Query: Report whether reported IC50 is lower than 40 nM (strictly) for CCCN1CCN(c2cc(Nc3ncc(F)c(NC4CC(C)(C)N(C)C(C)(C)C4)n3)ccc2C(F)(F)F)CC1
Reply: fulfilled

Query: Does the reported IC50 of CCOc1ccc(Nc2ncc(C(N)=O)c(NC3CC(C)(C)N(C)C(C)(C)C3)n2)cc1-n1nnnc1CC stay below 40 nM?
Reply: not fulfilled

More entries:
Query: State whether 40 nM exceeds IC50 recorded for CSc1nnnn1-c1cccc(Nc2ncc(C(N)=O)c(NC3CC(C)(C)N(C)C(C)(C)C3)n2)c1 .
Reply: not fulfilled

Query: Lab log: compare recorded IC50 with 40 nM; is it strictly lower for Cc1ccc(Nc2ncc(F)c(NC3CC(C)(C)N(C)C(C)(C)C3)n2)cc1-c1cccnc1 ?
Reply: not fulfilled

Query: Is IC50 of CN1C(C)(C)CC(Nc2nc(Nc3ccc(-c4ccncc4)c(C(F)(F)F)c3)ncc2F)CC1(C)C strictly below 40 nM?
Reply: not fulfilled

Query: Is the reported IC50 for CSc1nnnn1-c1cccc(Nc2ncc(C#N)c(NC3CC(C)(C)NC(C)(C)C3)n2)c1 strictly below 40 nM?
Reply: not fulfilled

Query: Is IC50 strictly under 40 nM for the entry CN1C(C)(C)CC(Nc2nc(Nc3ccc(N4CCSCC4)c(C#N)c3)ncc2F)CC1(C)C ?
Reply: fulfilled

Query: Below 40 nM on IC50? Entry COc1ccc(Nc2ncc(F)c(NC3CC(C)(C)NC(C)(C)C3)n2)cc1OC(F)F
Reply: not fulfilled

Query: Say whether its IC50 is strictly beneath 40 nM. Entry: Cc1cc(Nc2ncc(F)c(NC3CC(C)(C)N(C)C(C)(C)C3)n2)ccc1-c1cccnc1
Reply: fulfilled

----------
Tested on: Human primary T cells
Experiment: IL-2 ELISA, Human Primary T Cell, Anti-CD3+CD28+ (Example 3)
Type: cell-based
Conditions: Homo sapiens, T-cell, 24 h, anti-CD3+CD28 stimulation
Record form. Attribute: IC50. Fill in for each entry.
Answers are plain numbers, in nM.

Below, 3 molecules whose answers are already recorded.
Query: Return reported IC50; argument: CC(C)N1C(=O)C(C)(C)Oc2cc(Nc3ncc(C#N)c(NC4CC(C)(C)N(C)C(C)(C)C4)n3)ccc21 [II-74]
Reply: 349

Query: Look at this molecule and give its reported IC50. CN1C(C)(C)CC(N(Cc2ccccc2)c2nc(Nc3ccc(N4CCOCC4)c(C(F)(F)F)c3)ncc2F)CC1(C)C [Compound I-312]
Reply: 1690

Query: Tell me the measured IC50 of CN1C(C)(C)CC(Nc2nc(Nc3cc4c(cc3Cl)OCCO4)ncc2F)CC1(C)C [II-116] , please.
Reply: 1470

Each molecule below has a reported value. Please supply its IC50.
1. CN1C(C)(C)CC(Nc2nc(Nc3ccc(N4CCC(F)(F)CC4)c(C(F)(F)F)c3)ncc2F)CC1(C)C [Compound I-245]
2. CN1C(C)(C)CC(Nc2nc(Nc3ccc(C#N)c(Cl)c3)ncc2Cl)CC1(C)C [Compound I-35]
3. CN1C(C)(C)CC(Nc2nc(Nc3nc(-c4ccc(N5CCCC5)cc4)cs3)ncc2F)CC1(C)C [II-133]
4. CN1C(C)(C)CC(Nc2nc(Nc3nc(C#N)c(C#N)[nH]3)ncc2F)CC1(C)C [II-22]

Reply:
1: 539; 2: 145; 3: 2220; 4: 37300

State recorded IC50 for all listed molecules.
1. CCN1CCN(c2ccc(Nc3ncc(F)c(NC4CC(C)(C)N(C)C(C)(C)C4)n3)cn2)CC1 [Compound I-6]
2. COc1cc(Nc2ncc(C#N)c(NC3CC(C)(C)N(C)C(C)(C)C3)n2)cc(OC)c1 [Compound I-364]
3. CN1C(C)(C)CC(Nc2nc(Nc3ccc(Br)c(C(F)(F)F)c3)ncc2F)CC1(C)C [Compound I-109]

Reply:
1. 1690
2. 270
3. 345
